tested on: Mycobacterium tuberculosis; test: Antitubercular activity against Mycobacterium tuberculosis H37Rv ATCC 27294 at 6.25 ug/ml after 5 days by MABA method; assay type: functional; settings: H37Rv ATCC 27294, 120 h, read-out: GI
OBSERVED PROPERTY: inhibition of growth at 6.25 µg/mL (%)
Give the value in % but do not write % after it.

Per the records, this molecule ( CC(=O)/C(C)=N/OCc1cc(=O)oc2ccc(C)cc12 ) has inhibition of growth at 6.25 µg/mL equal to 92

Per the records, this molecule ( CC(=O)/C(C)=N/OCc1cc(=O)oc2ccc3ccccc3c12 ) has inhibition of growth at 6.25 µg/mL equal to 90

Per the records, this molecule ( COc1ccc2oc(=O)cc(CO/N=C(\C)C(C)=O)c2c1 ) has inhibition of growth at 6.25 µg/mL equal to 94

Per the records, this molecule ( CC(=O)/C(C)=N/OCc1cc(=O)oc2cc(C)ccc12 ) has inhibition of growth at 6.25 µg/mL equal to 91

Per the records, this molecule ( NNC(=O)c1ccncc1 [ISONIAZID] ) has inhibition of growth at 6.25 µg/mL equal to 100

Per the records, this molecule ( CC(=O)/C(C)=N/OCc1cc(=O)oc2ccc(Br)cc12 ) has inhibition of growth at 6.25 µg/mL equal to 81
